Experimental target: P2Y purinoceptor 6 (Homo sapiens, UniProt Q15077)
Sequence (Q15077 whole entry): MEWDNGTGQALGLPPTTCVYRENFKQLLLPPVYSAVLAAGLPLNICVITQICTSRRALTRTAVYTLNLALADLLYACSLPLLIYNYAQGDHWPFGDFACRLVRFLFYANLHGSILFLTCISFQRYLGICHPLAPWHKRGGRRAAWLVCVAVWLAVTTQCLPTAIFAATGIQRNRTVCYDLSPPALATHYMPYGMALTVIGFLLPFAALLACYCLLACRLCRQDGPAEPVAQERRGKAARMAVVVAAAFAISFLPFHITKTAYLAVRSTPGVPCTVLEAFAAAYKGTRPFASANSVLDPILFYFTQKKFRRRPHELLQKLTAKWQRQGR
Protocol details: Measure of Agonist Potency at human P2Y purinoceptor 6 (hP2Y6) stably expressed in 131N1 astrocytoma cell
Reported property: EC50 (nM)
Quick note: give the figure in nM, leave out the unit.

input: EC50 lookup needed for O=c1ccn([C@@H]2O[C@H](COP(=O)(O)OP(=O)(O)O)[C@@H](O)[C@H]2O)c(=O)[nH]1 [URIDINE_DIPHOSPHATE] , thanks.
output: 15

====

Experimental target: P2Y purinoceptor 4 (Homo sapiens, UniProt P51582)
Sequence (P51582 whole entry): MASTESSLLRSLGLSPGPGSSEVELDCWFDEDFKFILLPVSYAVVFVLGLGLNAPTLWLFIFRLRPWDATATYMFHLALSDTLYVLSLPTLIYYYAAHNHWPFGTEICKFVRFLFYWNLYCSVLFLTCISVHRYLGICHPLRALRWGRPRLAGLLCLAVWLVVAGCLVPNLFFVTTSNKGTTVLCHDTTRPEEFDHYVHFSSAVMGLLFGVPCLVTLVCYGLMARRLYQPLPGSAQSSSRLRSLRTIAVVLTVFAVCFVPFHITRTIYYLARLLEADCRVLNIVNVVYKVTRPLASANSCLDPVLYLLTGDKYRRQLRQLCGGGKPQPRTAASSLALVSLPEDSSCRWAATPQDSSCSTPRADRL
Protocol details: Measure of Agonist Potency at human P2Y purinoceptor 4 (hP2Y4) stably expressed in 131N1 astrocytoma cell
Reported property: EC50 (nM)
Quick note: give the figure in nM, leave out the unit.

input: EC50 lookup needed for O=c1ccn([C@H]2[C@H](O)[C@H](O)[C@]3(COP(=O)(O)OP(=O)(O)OP(=O)(O)O)C[C@H]23)c(=O)[nH]1 (stereo in doubt; form 2) , thanks.
output: 85
